molecular target: GluA2/3 (Homo sapiens, UniProt P42262+P42263); construct: expressed in transfected cells; host or cells: HEK293T; experiment: Whole-cell patch-clamp recordings of heteromeric GluA2/3 AMPAR in transfected HEK293T cells; format: cell-based; details: 10 mM glutamate + TC compound (12 µM optimal concentration), HEK293T, -60 mV, pH 7.4, 22 °C, mean ± SEM, n = 10
Sequence (P42262 25-883 isoform P42262-2 limits assumed): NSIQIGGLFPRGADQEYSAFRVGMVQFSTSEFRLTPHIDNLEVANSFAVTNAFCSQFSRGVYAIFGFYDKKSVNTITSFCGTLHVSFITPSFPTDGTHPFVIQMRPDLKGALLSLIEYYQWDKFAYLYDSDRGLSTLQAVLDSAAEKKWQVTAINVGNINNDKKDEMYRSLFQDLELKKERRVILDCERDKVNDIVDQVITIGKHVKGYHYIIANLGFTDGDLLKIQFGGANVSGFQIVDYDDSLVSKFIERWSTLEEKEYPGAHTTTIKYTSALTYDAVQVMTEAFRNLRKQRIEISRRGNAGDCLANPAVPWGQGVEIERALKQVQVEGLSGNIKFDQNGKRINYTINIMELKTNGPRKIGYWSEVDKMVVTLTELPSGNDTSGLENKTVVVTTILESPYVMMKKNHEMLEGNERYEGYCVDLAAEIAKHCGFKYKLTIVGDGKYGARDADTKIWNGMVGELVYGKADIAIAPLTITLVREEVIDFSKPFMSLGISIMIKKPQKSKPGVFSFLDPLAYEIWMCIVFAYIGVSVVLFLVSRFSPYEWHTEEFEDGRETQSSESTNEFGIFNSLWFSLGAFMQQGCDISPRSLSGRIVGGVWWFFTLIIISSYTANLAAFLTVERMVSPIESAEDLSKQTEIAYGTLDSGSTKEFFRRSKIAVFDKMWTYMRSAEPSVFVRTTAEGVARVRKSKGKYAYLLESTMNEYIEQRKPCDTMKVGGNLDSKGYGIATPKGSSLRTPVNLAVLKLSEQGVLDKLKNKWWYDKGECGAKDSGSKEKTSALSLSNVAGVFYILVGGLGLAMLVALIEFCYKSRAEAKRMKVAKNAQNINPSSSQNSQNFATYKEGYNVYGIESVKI
Sequence (P42263 29-894 isoform P42263-2 limits assumed): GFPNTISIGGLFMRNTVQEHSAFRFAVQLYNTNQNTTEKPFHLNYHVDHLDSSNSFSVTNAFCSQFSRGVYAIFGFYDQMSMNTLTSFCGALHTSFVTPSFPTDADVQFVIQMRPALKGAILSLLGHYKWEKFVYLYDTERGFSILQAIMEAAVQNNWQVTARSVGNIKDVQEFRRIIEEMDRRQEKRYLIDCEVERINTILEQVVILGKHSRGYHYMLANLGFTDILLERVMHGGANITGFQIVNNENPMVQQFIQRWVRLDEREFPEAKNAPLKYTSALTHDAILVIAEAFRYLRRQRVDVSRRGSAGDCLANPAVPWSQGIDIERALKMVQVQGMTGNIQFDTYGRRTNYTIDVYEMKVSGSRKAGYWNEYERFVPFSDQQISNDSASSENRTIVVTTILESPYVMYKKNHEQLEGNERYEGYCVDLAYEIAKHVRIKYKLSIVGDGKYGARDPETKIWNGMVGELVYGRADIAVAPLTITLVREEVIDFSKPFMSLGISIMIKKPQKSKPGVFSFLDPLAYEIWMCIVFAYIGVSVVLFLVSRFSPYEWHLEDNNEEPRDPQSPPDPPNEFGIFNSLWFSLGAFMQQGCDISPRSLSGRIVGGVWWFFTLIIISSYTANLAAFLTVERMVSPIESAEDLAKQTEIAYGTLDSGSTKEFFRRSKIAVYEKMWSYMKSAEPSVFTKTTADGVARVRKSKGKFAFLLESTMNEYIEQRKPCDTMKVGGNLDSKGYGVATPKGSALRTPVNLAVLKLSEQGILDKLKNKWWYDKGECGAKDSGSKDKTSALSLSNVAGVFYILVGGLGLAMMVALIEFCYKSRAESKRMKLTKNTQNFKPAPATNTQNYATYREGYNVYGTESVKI
Measured Metric: Amplitude (glutamate plus TC compound) (pA)

>  <Compound Smiles>
COc1ccc(-c2nc(C(=O)Nc3cc(OC)c(OC)c(OC)c3)cs2)cc1

>  <System Under Test>
GluA2/3 (Homo sapiens, UniProt P42262+P42263)

>  <Result Number>
94

$$$$

1 = COc1ccc(-c2nc(C(=O)Nc3ccccc3)cs2)cc1
2 = COc1ccc(-c2nc(C(=O)Nc3ccc(OC)c(OC)c3)cs2)cc1
query: Which value of Amplitude (glutamate plus TC compound) is smaller, the one for 1 or the one for 2 ? The response must carry the label of the picked entry.
result: 2
(2: 102 pA, 1: 159 pA)

a = COc1ccc(-c2nc(C(=O)Nc3ccc(C(C)(C)C)cc3)cs2)cc1
b = COc1ccc(-c2nc(C(=O)Nc3cc(OC)ccc3OC)cs2)cc1
query: Higher Amplitude (glutamate plus TC compound): a or b ? Write the label of whichever entry you select.
result: a
(a: 183 pA, b: 99 pA)
